Taken from ChEMBL document CHEMBL1961873.

molecular target: Serine/threonine-protein kinase PAK 5 (Homo sapiens) (UniProt Q9P286); settings: at 1 µM
Sequence (Q9P286 whole entry, looked up): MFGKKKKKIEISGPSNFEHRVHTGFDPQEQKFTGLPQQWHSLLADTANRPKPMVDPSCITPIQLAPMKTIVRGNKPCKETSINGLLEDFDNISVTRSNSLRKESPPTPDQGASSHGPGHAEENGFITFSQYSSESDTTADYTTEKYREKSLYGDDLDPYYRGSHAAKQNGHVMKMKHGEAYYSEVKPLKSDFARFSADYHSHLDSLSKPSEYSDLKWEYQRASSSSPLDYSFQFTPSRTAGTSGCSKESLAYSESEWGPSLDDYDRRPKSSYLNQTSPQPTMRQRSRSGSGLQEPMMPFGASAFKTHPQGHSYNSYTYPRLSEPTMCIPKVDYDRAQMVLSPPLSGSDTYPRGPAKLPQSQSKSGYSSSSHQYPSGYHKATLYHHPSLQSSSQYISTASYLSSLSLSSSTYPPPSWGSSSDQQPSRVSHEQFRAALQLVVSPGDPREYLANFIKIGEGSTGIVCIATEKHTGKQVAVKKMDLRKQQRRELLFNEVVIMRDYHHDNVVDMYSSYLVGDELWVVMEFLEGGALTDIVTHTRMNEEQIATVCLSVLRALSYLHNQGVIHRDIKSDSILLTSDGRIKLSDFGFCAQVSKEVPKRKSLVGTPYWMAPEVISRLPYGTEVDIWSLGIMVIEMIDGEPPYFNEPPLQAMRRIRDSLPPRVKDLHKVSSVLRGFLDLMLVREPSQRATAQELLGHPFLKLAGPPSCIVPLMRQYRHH
Description: GSK_PKIS: PAK5 mean inhibition at 1 uM [Nanosyn]
reported_metric: inhibition

smiles_representation=COC(=O)c1sc(-n2cnc3cc(OC)c(OC)cc32)cc1OCc1ccccc1C(F)(F)F reported_metric=inhibition reported=-4.74%
smiles_representation=COc1ccc(-c2cc3c(N)ncnc3o2)cc1 reported_metric=inhibition reported=-1.65%
smiles_representation=NS(=O)(=O)c1ccc(Nc2ncc(-c3ccccc3)o2)cc1 reported_metric=inhibition reported=9.45%
smiles_representation=O=C(Nc1n[nH]c2cc(-c3ccc(F)cc3)ccc12)C1CC1 reported_metric=inhibition reported=-1.87%
smiles_representation=Fc1ccc(-c2cc(-c3c[nH]nc3-c3ccccn3)ccn2)cc1 reported_metric=inhibition reported=2.37%
smiles_representation=Cc1cccc(Nc2ncc(-c3ccccc3)o2)c1 reported_metric=inhibition reported=10.2%
smiles_representation=COc1cc2c(cc1Nc1nc(Nc3ccsc3C(N)=O)c3cc[nH]c3n1)N(C(=O)CN(C)C)CCC2(C)C reported_metric=inhibition reported=-3.07%
smiles_representation=N#Cc1c(NC(=O)c2ccc(F)cc2)sc2c1CCCC2 reported_metric=inhibition reported=-0.51%
smiles_representation=CN1CCC(n2cnc(-c3ccc(F)cc3)c2-c2ccnc(Nc3ccccc3)n2)CC1 reported_metric=inhibition reported=4.44%
smiles_representation=Nc1nc(-c2ccc(F)cc2)c(-c2ccc3ncccc3n2)s1 reported_metric=inhibition reported=4.21%
smiles_representation=CN1CCC(n2cnc(-c3ccc(F)cc3)c2-c2ccnc(N)n2)CC1 reported_metric=inhibition reported=3.69%
